Data provenance: BindingDB's records for doi:10.1124/jpet.102.047118

Peptide text beside a SMILES is read from it.
Form: system (Neuropeptide FF receptor 2 (Homo sapiens)), quantity (Ki), values below.
Your answer should be a number followed by the unit of measure.

stdin: // fetch Neuropeptide FF receptor 2 (Homo sapiens) Ki for CC(C)C[C@H](NC(=O)[C@H](CC(N)=O)NC(=O)[C@@H]1CCCN1C(=O)[C@@H](N)C(C)C)C(=O)N1CCC[C@H]1C(=O)N[C@@H](CCC(N)=O)C(=O)N[C@@H](CCCNC(=N)N)C(=O)N[C@@H](Cc1ccccc1)C(N)=O [RFamide-related peptide 3]
stdout: 55 nM

stdin: Next: CSCC[C@H](N)C(=O)N1CCC[C@H]1C(=O)N[C@@H](Cc1cnc[nH]1)C(=O)N[C@@H](CO)C(=O)N[C@@H](Cc1ccccc1)C(=O)N[C@@H](C)C(=O)N[C@@H](CC(N)=O)C(=O)N[C@@H](CC(C)C)C(=O)N1CCC[C@H]1C(=O)N[C@@H](CC(C)C)C(=O)N[C@@H](CCCNC(=N)N)C(=O)N[C@@H](Cc1ccccc1)C(N)=O [RFamide-related peptide 1] (H-MPHSFANLPLRF-NH2)
stdout: 15 nM

stdin: Next: CC(C)C[C@H](NC(=O)[C@H](N)Cc1ccc(O)cc1)C(=O)N(C)[C@@H](Cc1ccccc1)C(=O)N[C@@H](CCC(N)=O)C(=O)N1CCC[C@H]1C(=O)N[C@@H](CCC(N)=O)C(=O)N[C@@H](CCCN=C(N)N)C(=O)N[C@@H](Cc1ccccc1)C(N)=O [CAS_132709] (HELM PEPTIDE1{[dY].L.[meF].Q.P.Q.R.F.[am]}$$$$V2.0)
stdout: 5.3 nM

stdin: Next: CC[C@H](C)[C@H](NC(=O)CN)C(=O)N[C@@H](CCCN=C(N)N)C(=O)N1CCC[C@H]1C(=O)N[C@H](C(=O)NCC(=O)N[C@@H](CCCN=C(N)N)C(=O)N[C@@H](Cc1ccccc1)C(N)=O)C(C)C [NSC_0] (H-GIRPVGRF-NH2)
stdout: 32 nM
